experiment: method code SF, from PMID: 1610484
quantity: logP

Illustrative cases are given below, each with its answer.
> print(dat)
                      smiles.representation  endpoint.value
1         CSCCNC(=O)CCn1cnc([N+](=O)[O-])n1           -0.07
2           O=C(Cn1cnc([N+](=O)[O-])n1)NCCO           -1.37
3  CSCCCNC(=O)C(F)(F)Cn1cnc([N+](=O)[O-])n1            0.76
4         COCCNC(=O)CCn1cnc([N+](=O)[O-])n1           -0.65
5   O=C(NCCCO)C(F)(F)Cn1cnc([N+](=O)[O-])n1           -0.63
6   COCCNC(=O)C(F)(F)Cn1cnc([N+](=O)[O-])n1           -0.29
7          CSCCNC(=O)Cn1cnc([N+](=O)[O-])n1            -0.1
8         COCCCNC(=S)Cn1cnc([N+](=O)[O-])n1            0.63

P = COCCNC(=S)Cn1cnc([N+](=O)[O-])n1
Q = CSCCNC(=O)C(F)(F)Cn1cnc([N+](=O)[O-])n1
Exam item: Returns: the argument ( P or Q ) having the larger logP. Choose, then provide that item's label.
Marked response: Q

1 = CSCCCNC(=O)Cn1cnc([N+](=O)[O-])n1
2 = COCCCNC(=O)C(F)(F)Cn1cnc([N+](=O)[O-])n1
Exam item: 1 or 2 : whose logP is greater? Could you answer with the label of the item you picked?
Marked response: 1
(1: 0.26, 2: 0.01)
